Assay: solvent given as SMILES
Conditions: in C1CCCCC1
Items are presented alongside their recorded emission maximum.
METRIC: emission maximum

>>> reported_result("CCC1=C(C)C2=C(C)c3c(C)c(CC)c(C)n3[B-](F)(F)[N+]2=C1C")
"537.2 nm"
>>> reported_result("c1ccc(-c2cc3cccc4cc(-c5ccccc5)c5cc(-c6cc7[b-]8c(c6)c(-c6ccccc6)cc6cccc(cc7-c7ccccc7)[n+]86)cc2[b-]5[n+]34)cc1")
"521 nm"
>>> reported_result("CN(C)c1ccc2nc(-c3ccc(C(=O)Nc4ccccc4)cc3)sc2c1")
"427 nm"
>>> reported_result("Cc1cc(C)c(C2=C3C=C(c4ccc(C(C)(C)C)cc4)C(c4ccc(C(C)(C)C)cc4)=[N+]3[B-](F)(F)n3c2cc(-c2ccc(C(C)(C)C)cc2)c3-c2ccc(C(C)(C)C)cc2)c(C)c1")
"639 nm"
>>> reported_result("Cc1cc(C)c(B(c2c(C)cc(C)cc2C)c2cc3ccc4ccccc4c3c3c2ccc2ccccc23)c(C)c1")
"436 nm"
>>> reported_result("CCCC1(CCC)c2cc(-c3ccc(-c4ccc(OC)cc4)o3)ccc2-c2ccc(-c3ccc(-c4ccc(OC)cc4)o3)cc21")
"425 nm"
>>> reported_result("Oc1cccc(/N=C/c2ccccc2Oc2ccccc2)c1")
"402 nm"
>>> reported_result("c1ccc(-c2oc(-c3ccccc3)c3ccccc23)cc1")
"448 nm"
>>> reported_result("CN(C)c1ccc2c(c1)COc1c-2oc2ccccc2c1=O")
"411.43 nm"
>>> reported_result("CC(C)(C)c1ccc2c(c1)c1cc(C(C)(C)C)ccc1n2-c1cccc2c1Oc1c(-c3nc(-c4ccccc4)nc(-c4ccccc4)n3)cccc1C2(C)C")
"428 nm"
>>> reported_result("N#CC(C#N)=C(c1ccc(N(c2ccccc2)c2ccccc2)cc1)c1ccc(N(c2ccccc2)c2ccccc2)cc1")
"413.3 nm"
>>> reported_result("CCC1=C(C)C2=Cc3cc(I)cn3[B-](F)(F)[N+]2=C1C")
"538.5 nm"
>>> reported_result("CCCCc1cc2cccc[n+]2[b-]2c(-c3cccc4[b-]3[n+]3ccccc3cc4CCCC)cccc21")
"451 nm"
>>> reported_result("C/C(=C\\c1ccc(C)cc1)c1nc2ccccc2o1")
"370 nm"
>>> reported_result("C[SiH](C)c1cccc2ccccc12")
"328 nm"
>>> reported_result("CCC1(CC)c2cc(C#Cc3cc(C#Cc4ccc5c(c4)C(CC)(CC)c4cc(N(c6ccccc6)c6ccccc6)ccc4-5)c4ccc5c(C#Cc6ccc7c(c6)C(CC)(CC)c6cc(N(c8ccccc8)c8ccccc8)ccc6-7)cc(C#Cc6ccc7c(c6)C(CC)(CC)c6cc(N(c8ccccc8)c8ccccc8)ccc6-7)c6ccc3c4c65)ccc2-c2ccc(N(c3ccccc3)c3ccccc3)cc21")
"524 nm"
